Assay: Pharmacokinetic (toxicokinetic) study, plasma
Type: in vivo, Sprague Dawley rats
Conditions: female, Sprague Dawley, rat, plasma, iv, 40 mg/kg, Day 3, 40 mg/kg IV, Female, plasma; read-out: T1/2 (converted)
outcome measure: half-life (h)
Your answer is read as h, so omit the unit and give the number.

CC(=O)N[C@H]1[C@H](Oc2ccc([N+](=O)[O-])cc2)O[C@H](CO)[C@@H](O)[C@@H]1O has a reported half-life of 2.34

---

Experiment: Pharmacokinetic (toxicokinetic) study, plasma
Assay type: in vivo, Sprague Dawley rats
Details: female, Sprague Dawley, rat, plasma, iv, 40 mg/kg, Day 1, 40 mg/kg IV, Female, plasma; read-out: Cl (converted)
outcome measure: clearance (L/h/kg)
Write the answer as a number in L/h/kg, unit excluded.

Reported clearance for CC(=O)N[C@H]1[C@H](Oc2ccc([N+](=O)[O-])cc2)O[C@H](CO)[C@@H](O)[C@@H]1O [AVR-48] was 0.745
